- Assay Explanation: Cytotoxicity against human WI26VA4 cells assessed as inhibition of cell growth measured after 72 hrs by MTT assay
- Type: toxicity, cell-based
# reported IC50; entries follow
Property Measured: IC50

Compound: O=C(CNc1cccc(Cl)c1)NC12CC3CC(CC(C3)C1)C2
Property Measured: IC50
Result: > 20 µg/mL
--
Compound: C[C@@H]1[C@H]2C[C@@H](C[C@H]1NC(=O)CNc1ccc(OC(F)(F)F)cc1)C2(C)C
Property Measured: IC50
Result: > 20 µg/mL
--
Compound: O=C(CNc1ccc(OC(F)(F)F)cc1)NC1C2CC3CC(C2)CC1C3 (stereo not given)
Property Measured: IC50
Result: > 20 µg/mL
--
Compound: C[C@@H]1[C@H]2C[C@@H](C[C@H]1NC(=O)CNc1cccc(Br)c1)C2(C)C
Property Measured: IC50
Result: > 20 µg/mL
--
Compound: C[C@@H]1[C@H]2C[C@@H](C[C@H]1NC(=O)CNc1ccccc1Cl)C2(C)C
Property Measured: IC50
Result: > 20 µg/mL
